Provide the recorded PNECr for the entries that follow.
Test system: microbial flora in the target watershed
Protocol: minimum inhibitory concentration (MIC) by EUCAST database and drug resistance prediction invalid concentration PNECr
Experimental setup: PNECR=MIC/AF, AF 10
Give bare numbers.

Solved entries:
CS(=O)(=O)c1ccc([C@@H](O)[C@@H](CO)NC(=O)C(Cl)Cl)cc1 | 50
CC1(C)S[C@@H]2[C@H](/N=C/N3CCCCCC3)C(=O)N2[C@H]1C(=O)O | 6.4
C[C@@H]1[C@H](O)[C@@H](C)/C=C/C=C/C=C/C=C/C=C/C=C/C=C/[C@H](O[C@@H]2O[C@H](C)[C@@H](O)[C@H](N)[C@@H]2O)C[C@@H]2O[C@](O)(C[C@@H](O)C[C@@H](O)[C@H](O)CC[C@@H](O)C[C@@H](O)CC(=O)O[C@H]1C)C[C@H](O)[C@H]2C(=O)O | 0.8

Dear reader, for each entry below, please note its PNECr.
1. CN(C)[C@@H]1C(O)=C(C(N)=O)C(=O)[C@@]2(O)C(O)=C3C(=O)c4c(O)cccc4[C@@](C)(O)[C@H]3[C@H](O)[C@@H]12
2. CC1(C)S[C@@H]2[C@H](NC(=O)[C@H](C(=O)O)c3ccsc3)C(=O)N2[C@H]1C(=O)O

12.5
25

---

System: microbial flora in the target watershed
Protocol: minimum inhibitory concentration (MIC) by EUCAST database and drug resistance prediction invalid concentration PNECr
Experimental setup: PNECR=MIC/AF, AF 10
Exercise: state measured PNECr for each of the compounds provided.
Numbers only.

CC[C@H]1OC(=O)C[C@@H](O)[C@H](C)[C@@H](O[C@@H]2O[C@H](C)[C@@H](O[C@H]3C[C@@](C)(O)[C@@H](O)[C@H](C)O3)[C@H](N(C)C)[C@H]2O)[C@@H](CC=O)C[C@@H](C)C(=O)/C=C/C(C)=C/[C@@H]1CO[C@@H]1O[C@H](C)[C@@H](O)[C@@H](OC)[C@H]1OC | 200

Please state, for each entry, its recorded PNECr.
1. COC[C@H]1O[C@@H](OC2OC[C@@H]3O[C@]4(O[C@H]3[C@H]2OC(=O)C(C)C)O[C@H](C)[C@@](O)(C(C)=O)[C@@H]2OCO[C@H]24)[C@@H](OC)[C@@H](O)[C@@H]1O[C@@H]1O[C@H](C)[C@H](OC)[C@H](O[C@H]2C[C@@]3(C)OC4(C[C@@H](O)[C@H](O[C@H]5C[C@@H](O)[C@H](OC(=O)c6c(C)c(Cl)c(O)c(Cl)c6OC)[C@@H](C)O5)[C@@H](C)O4)O[C@@H]3[C@@H](C)O2)[C@H]1O (stereo partly drawn)
2. N[C@@H]1[C@H]2CN(c3nc4c(cc3F)c(=O)c(C(=O)O)cn4-c3ccc(F)cc3F)C[C@@H]12

1: 100; 2: 0.8

---

System: microbial flora in the target watershed
Protocol: minimum inhibitory concentration (MIC) by EUCAST database and drug resistance prediction invalid concentration PNECr
Experimental setup: PNECR=MIC/AF, AF 10
Assign PNECr to each entry below.
Give bare numbers.

The following compounds have reported results that may help.
NCC[C@H](O)C(=O)N[C@@H]1C[C@H](N)[C@@H](O[C@H]2O[C@H](CN)[C@@H](O)[C@H](O)[C@H]2O)[C@H](O)[C@H]1O[C@H]1O[C@H](CO)[C@@H](O)[C@H](N)[C@H]1O | 25
O=C1CN(/N=C/c2ccc([N+](=O)[O-])o2)C(=O)N1 | 400

Field: next compound
Give its PNECr value. Item: `C[C@@H](O)[C@H]1C(=O)N2C(C(=O)O)=C(S[C@@H]3CN[C@H](CNS(N)(=O)=O)C3)[C@H](C)[C@H]12`
0.2
